This collection of values is drawn from patent US20240409617A1.

- Assay Target: B.1.351 Spike (SARS-CoV-2 spike protein, South African variant B.1.351) (SARS-CoV-2)
Assay Endpoint: Response
Numbers only.

[Q] Given the entry Ab 31 scFv-Fc (scFv, V domains shown) VH: QVQLVQSGAEVKKPGSSVKVSCKASGGTFSSYTISWVRQAPGQGLEWMGGIIPILGTPNYAQKFQDRVAITADKSTSTAYMELSSLRSEDTAVYYCAVGSGWYSGFDYWGQGTLVTVSS VL: NFMLTQPHSVSESPGKTVTISCTGSSGSIASNYVQWYQQRPGSAPTTVIYEDSQRPSGVPDRFSGSIDSSSNSASLTISGLKTEDEADYYCQSFHNSNPVIFGGGTKLTVL , report its measured Response.
[A] 0.09
